Tested on: Escherichia coli TOP10
TEST DESCRIPTION: shrunken log2 fold change of peptide-encoding DNA abundance (4.5 h post-induction vs induction); higher = less antimicrobial activity (less host growth inhibition)
TEST SETTINGS: time post-induction: 4.5 h; library: site-saturation at positions 5, 18, 19, 20
READOUT NAME: shrunken log2 fold change
Just the number.

Field: example entries. Status: answers known.
• RRIRCRPPRLPRPRPRPVVKPRP = 0.0236
• RRIRHRPPRLPRPRPRPIDSPRP = -0.0116
• RRIRQRPPRLPRPRPRPDEYPRP = 0.0131
• RRIRFRPPRLPRPRPRPWLSPRP = -0.129
• RRIRRRPPRLPRPRPRPLDIPRP = -0.121

Param item = RRIRERPPRLPRPRPRPTMKPRP ; retrieve measured shrunken log2 fold change.
-0.0369

###

Test system: Escherichia coli TOP10
TEST DESCRIPTION: shrunken log2 fold change of peptide-encoding DNA abundance (4.5 h post-induction vs induction); higher = less antimicrobial activity (less host growth inhibition)
TEST SETTINGS: time post-induction: 4.5 h; library: site-saturation at positions 5, 18, 19, 20
// label = Fulfilled if shrunken log2 fold change is not less than -0.09, otherwise Not fulfilled

Previously resolved entries follow.
• RRIRMRPPRLPRPRPRPEVVPRP = Fulfilled
• RRIRVRPPRLPRPRPRPVVNPRP = Not fulfilled
• RRIRHRPPRLPRPRPRPRMEPRP = Fulfilled
• RRIRTRPPRLPRPRPRPYVTPRP = Not fulfilled

Does shrunken log2 fold change meet or surpass -0.09 for RRIRKRPPRLPRPRPRPKRCPRP ?
Fulfilled

And RRIRYRPPRLPRPRPRPGQHPRP ?
Not fulfilled

And RRIRKRPPRLPRPRPRPWRAPRP ?
Fulfilled

And RRIRGRPPRLPRPRPRPSNYPRP ?
Fulfilled

And RRIRFRPPRLPRPRPRPVVFPRP ?
Not fulfilled

And RRIRGRPPRLPRPRPRPVLVPRP ?
Fulfilled

And RRIRMRPPRLPRPRPRPSIFPRP ?
Fulfilled

And RRIRERPPRLPRPRPRPQQWPRP ?
Fulfilled

And RRIRVRPPRLPRPRPRPRCVPRP ?
Fulfilled

And RRIRDRPPRLPRPRPRPIVWPRP ?
Fulfilled

And RRIRQRPPRLPRPRPRPHGHPRP ?
Not fulfilled

###

System: Escherichia coli TOP10
TEST DESCRIPTION: shrunken log2 fold change of peptide-encoding DNA abundance (4.5 h post-induction vs induction); higher = less antimicrobial activity (less host growth inhibition)
TEST SETTINGS: time post-induction: 4.5 h; library: site-saturation at positions 5, 18, 19, 20
Reported shrunken log2 fold change by item:
Just the number.

Field: example entries. Status: answers known.
* RRIRFRPPRLPRPRPRPNCWPRP | -0.358
* RRIRHRPPRLPRPRPRPLPIPRP | -0.598
* RRIRIRPPRLPRPRPRPPIWPRP | -0.00949

The record that follows has no shrunken log2 fold change shown yet.
Request body: readout shrunken log2 fold change, system Escherichia coli TOP10, query RRIRTRPPRLPRPRPRPSMTPRP . Return the value.
-0.401

###

Tested on: Escherichia coli TOP10;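 further: peptides expressed intracellularly from a pBAD plasmid library in pooled LB shake-flask culture, induced with 0.3% L-arabinose, DNA abundance read by NGS, three biological replicates, DESeq2 with apeglm shrinkage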
TEST DESCRIPTION: shrunken log2 fold change of peptide-encoding DNA abundance (4.5 h post-induction vs induction); higher = less antimicrobial activity (less host growth inhibition)
TEST SETTINGS: time post-induction: 4.5 h; library: site-saturation at positions 5, 18, 19, 20
// label = 1 if shrunken log2 fold change is not less than 0.05, otherwise -1

Previously resolved entries follow.
• RRIRHRPPRLPRPRPRPAGLPRP = 1
• RRIRSRPPRLPRPRPRPSFWPRP = 1
• RRIRIRPPRLPRPRPRPQFNPRP = -1
• RRIRPRPPRLPRPRPRPKYVPRP = -1
• RRIRGRPPRLPRPRPRPPSVPRP = 1

Does shrunken log2 fold change meet or surpass 0.05 for RRIRARPPRLPRPRPRPVYLPRP ?
-1
